assay: NCI Yeast Anticancer Drug Screen. Data for the bub3 strain (AID 167); conditions: S. cerevisiae bub3 mutant strain, at 50.0 µM, stronger effect = higher value
This is part of a sample that, as a whole, favours compounds with a hit. Of some 79,000 tested, about 15% had one in any assay.
# binarize growth inhibition: threshold 50% inclusive, high side Criterion met, low side Criterion not met

INSERT INTO measurements (molecule, class_label) VALUES
  ('CN(C)c1ccc(C(=C2C=CC(=[N+](C)C)C=C2)c2ccc(N(C)C)cc2)cc1 (tested in a mixture with another compound)', 'Criterion met'),
  ('CC(C(=O)O)c1c(-c2ccccc2)ccc2ccccc12 (centres undefined)', 'Criterion not met'),
  ('CC(C)C(OC(=O)c1ccc(NCc2cc(O)ccc2O)cc1)C(C)C', 'Criterion met');

Query: Decide: growth inhibition of "CC(=O)Nc1ccc2c(c1)C(=O)c1cccc(F)c1-2" >= 50%?
Reply: Criterion not met

Query: Decide: growth inhibition of "CCc1c(Nc2ccccc2C)[nH]c(N)nc1=S" >= 50%?
Reply: Criterion met

Query: Decide: growth inhibition of "CC1=C(C(=O)Nc2ccccc2)C(c2ccccc2F)C(C(=O)Nc2ccccc2)=C(C)N1" >= 50%?
Reply: Criterion not met

Query: Decide: growth inhibition of "CCOc1ccc2c(c1)nc1ccccc1[n+]2CC" >= 50%?
Reply: Criterion not met

Query: Decide: growth inhibition of "CCOC(=O)CNC(=O)Sc1ccc(C(C)(C)C)cc1C" >= 50%?
Reply: Criterion met

Query: Decide: growth inhibition of C=C1CC(Cn2ccc(=O)[nH]c2=O)(c2ccc(Cl)cc2)OC1=O (centres undefined) >= 50%?
Reply: Criterion met

Query: Decide: growth inhibition of "CCN(CC)CCNc1ccc2nnn3c4ccc([N+](=O)[O-])cc4c(=O)c1c23" >= 50%?
Reply: Criterion not met

Query: Decide: growth inhibition of COc1ccc(C2C3=C(CCCC3=O)Oc3cc4c(cc32)OCO4)cc1 (centres undefined) >= 50%?
Reply: Criterion met

Query: Decide: growth inhibition of "CCOC(=O)[C@]12CCC[C@@]1(O)NC(=O)c1cnccc12" >= 50%?
Reply: Criterion met

Query: Decide: growth inhibition of "COc1ccc(CN(C)c2c(C)ccc3ccccc23)cc1" >= 50%?
Reply: Criterion met

Query: Decide: growth inhibition of "Cc1ccc(S(=O)(=O)Nc2ccc3c(c2)C(=O)c2ccccc2-3)cc1" >= 50%?
Reply: Criterion met

---

assay: NCI Yeast Anticancer Drug Screen. Data for the cln2 rad14 strain (AID 165); details: S. cerevisiae cln2 rad14 strain, at 50.0 µM (retest, dose inferred, filed as 5.0), stronger effect = higher value
This is part of a sample that, as a whole, favours compounds with a hit. Of some 79,000 tested, about 15% had one in any assay.
// bucketize growth inhibition: Low (below 50%), Medium (50% to below 90%), High (90% or more)

Solved entries (count: 4):
INSERT INTO measurements (compound, class_label) VALUES
  ('CCOC(=O)C1SC(=Nc2ccc(Cl)cc2)N=C1C (stereo unspecified)', 'Medium'),
  ('CCC[CH2][Sn]([CH2]CCC)([O]C(=O)c1c(F)cccc1F)[O]C(=O)c1c(F)cccc1F', 'Medium'),
  ('FC(F)(F)C(C1=NC(C(F)(F)F)(C(F)(F)F)N=C(N2CCOCC2)O1)C(F)(F)F', 'Low'),
  ('CC(=O)c1c(CO[N+](=O)[O-])n([O-])c2ccccc2[n+]1=O', 'Low');

Query: For this compound, which bin applies? "O=c1[nH]c(=S)[nH]c(-c2ccccc2)c1Cc1c(O)ccc2ccccc12"
Reply: Low

Query: For this compound, which bin applies? "O=[N+]([O-])c1ccc(Oc2c(Cl)cccc2Cl)cc1"
Reply: Low

Query: For this compound, which bin applies? "O=C1c2ccccc2C(=O)c2sc(Nc3cccc(Cl)c3)nc21"
Reply: High

Query: For this compound, which bin applies? COC/C(Br)=C\SC#N (tested in a mixture with another compound)
Reply: Medium

Query: For this compound, which bin applies? "CC(C)/C=N/N(CCOC(=O)Nc1ccccc1)C(=O)Nc1ccccc1"
Reply: Low

Query: For this compound, which bin applies? "CCCCN(CCC=C1c2ccccc2Oc2ccccc21)CCCC"
Reply: High

Query: For this compound, which bin applies? CCCCCCCN(CCCCCCC)CC(O)c1ccc2ccc3ccccc3c2c1 (stereo unspecified)
Reply: Medium
